Tested on: primary human hepatic stellate cells (donor 1)
Experiment: scaled lipid accumulation score (0 = DMSO-like, 1 = nortriptyline-like); higher = stronger HSC inactivation (lipid re-accumulation), active = hit call of the paper
Details: library stock concentration: 1 mM; 48 h
Counter-ions that a name gives are not always drawn. The whole screen tested about 5,800 compounds, of which about 620 (11%) showed activity. For the sample, actives were picked, then their nearest neighbours and some compounds at random.
scaled lipid accumulation score overview

CCCCCCC(=O)O[C@H]1CC[C@H]2[C@@H]3CC(=O)C4=CC(=O)CC[C@]4(C)[C@H]3CC[C@]12C [6-keto Testosterone Enanthate] : 0.048 (inactive)

Can you look up the measured scaled lipid accumulation score of CCCCCC(/C=C/C=O)OO (centres undefined) [4-hydroperoxy 2-Nonenal] for me?
0.019 (inactive)

Could you tell me which scaled lipid accumulation score is on file for c1cc2ccc(N3CCNCC3)cc2cn1 [7-piperazin-1-yl-Isoquinoline (hydrochloride)] ?
≤ 0 (inactive)

scaled lipid accumulation score for CCCCC/C=C\C/C=C\C/C=C\C/C=C\CCCC(=O)Nc1cccc([N+](=O)[O-])c1 ?
≤ 0 (inactive)

Numbers sourced from the supplement of paper PMC9135407.
